# tgt: T1, HLA-DR11 molecule (DRB1*1101) (human)
# T1 chain 1: not shown
# T1 chain 2: not shown
# assay_remarks: competition ELISA vs biotin-HA 306-318
pIC50: −log10 of the molar value.
Binary classification by pIC50, with 6 as an inclusive lower bound for Satisfied; all other cases are Not satisfied.

Example results:
# binder, class_name
records = [
    ("EKQRHLDKKQRFHNIRGRWT (modifications not checked) [E6(121-140)]", "Satisfied"),
    ("LDLQPETTDLYCYEQ (modifications not checked) [E7 13-27]", "Not satisfied"),
    ("KCDSTLRLCVQSTHV (modifications not checked) [E7(60-74)]", "Not satisfied"),
]

Q: Is pIC50 for HLDKKQRFHNIRGR (modifications not checked) [E6 124-138] at or above 6?
Ans: Satisfied

Q: Is pIC50 for DLLIRCINCQKPLCPEEKQRHL (modifications not checked) [E6(105-126)] at or above 6?
Ans: Not satisfied

Q: Is pIC50 for TLHEYMLDLQPETTDLYCYEQ (modifications not checked) [E7(7-27)] at or above 6?
Ans: Satisfied

Q: Is pIC50 for MHGDTPTLHEYMLDLQPETT (modifications not checked) [E7(1-20)] at or above 6?
Ans: Not satisfied

Q: Is pIC50 for LRREVYDFAFRDLCIVYRDGNPY (modifications not checked) [E6(45-67)] at or above 6?
Ans: Satisfied
